From: the supplement of paper PMC10307832

# System: BEN
# EXPERIMENT_NOTES: relative viability (nuclei count vs DMSO), 5 days (fraction); higher = more cells survive
# TEST_CONDITIONS: first compound 0.8 µM
Exercise: state measured relative viability for each of the compounds provided.
One number for each entry.

Look over these answered cases.
{"columns": ["COMPOUND", "relative viability"],
 "data": [
  ["Cc1cnc(-c2cnc(NCCNc3ccc(C#N)cn3)nc2-c2ccc(Cl)cc2Cl)[nH]1 + CS(=O)(=O)CCNCc1ccc(-c2ccc3ncnc(Nc4ccc(OCc5cccc(F)c5)c(Cl)c4)c3c2)o1 [Lapatinib] (partner 2 µM)", 0.705],
  ["O=c1[nH]c2ccccc2n1C1CCN(CCCC(c2ccc(F)cc2)c2ccc(F)cc2)CC1 [Pimozide] + Cc1nc(Nc2ncc(C(=O)Nc3c(C)cccc3Cl)s2)cc(N2CCN(CCO)CC2)n1 [Dasatinib] (partner 0.075 µM)", 0.26],
  ["Cc1cnc(-c2cnc(NCCNc3ccc(C#N)cn3)nc2-c2ccc(Cl)cc2Cl)[nH]1 + COc1cccc2cc(-c3nc([C@H]4CC[C@H](C(=O)O)CC4)n4ncnc(N)c34)[nH]c12 [OSI-027] (partner 0.5 µM)", 0.324]
]}

Each of the following entries comes with a recorded value; kindly state relative viability for each.
1. O=c1[nH]c2ccccc2n1C1CCN(CCCC(c2ccc(F)cc2)c2ccc(F)cc2)CC1 [Pimozide] + C[C@@H](Oc1cc(-c2cnn(C3CCNCC3)c2)cnc1N)c1c(Cl)ccc(F)c1Cl [Crizotinib] (partner 1 µM)
2. O=c1[nH]c2ccccc2n1C1CCN(CCCC(c2ccc(F)cc2)c2ccc(F)cc2)CC1 [Pimozide] + O=C(c1cc(Cc2n[nH]c(=O)c3ccccc23)ccc1F)N1CCN(C(=O)C2CC2)CC1 [Olaparib] (partner 8 µM)
3. Cc1cnc(-c2cnc(NCCNc3ccc(C#N)cn3)nc2-c2ccc(Cl)cc2Cl)[nH]1 + N=C(N)NC(=N)NCCc1ccccc1 [Phenformin] (partner 250 µM)
4. O=c1[nH]c2ccccc2n1C1CCN(CCCC(c2ccc(F)cc2)c2ccc(F)cc2)CC1 [Pimozide] + Cc1nc(NC(=O)N2CCC[C@H]2C(N)=O)sc1-c1ccnc(C(C)(C)C(F)(F)F)c1 [Alpelisib] (partner 2 µM)
5. Cc1cnc(-c2cnc(NCCNc3ccc(C#N)cn3)nc2-c2ccc(Cl)cc2Cl)[nH]1 + CC(=O)c1c(C)c2cnc(Nc3ccc(N4CCNCC4)cn3)nc2n(C2CCCC2)c1=O [Palbociclib] (partner 0.5 µM)
6. Cc1cnc(-c2cnc(NCCNc3ccc(C#N)cn3)nc2-c2ccc(Cl)cc2Cl)[nH]1 + CS(=O)(=O)N1CCN(Cc2cc3nc(-c4cccc5[nH]ncc45)nc(N4CCOCC4)c3s2)CC1 [Pictilisib] (partner 1 µM)
7. O=c1[nH]c2ccccc2n1C1CCN(CCCC(c2ccc(F)cc2)c2ccc(F)cc2)CC1 [Pimozide] + CCNC(=O)c1noc(-c2cc(C(C)C)c(O)cc2O)c1-c1ccc(CN2CCOCC2)cc1 [Luminespib] (partner 0.01 µM)
8. Cc1cnc(-c2cnc(NCCNc3ccc(C#N)cn3)nc2-c2ccc(Cl)cc2Cl)[nH]1 + CC1(C)CCC(c2ccc(Cl)cc2)=C(CN2CCN(c3ccc(C(=O)NS(=O)(=O)c4ccc(N[C@H](CCN5CCOCC5)CSc5ccccc5)c(S(=O)(=O)C(F)(F)F)c4)cc3)CC2)C1 [Navitoclax] (partner 0.5 µM)

Output line:
0.846
1.1
0.252
0.961
0.687
0.612
0.324
0.0658
